Data origin, for the record: patent US20250250357A1

- study-target: T1, monkey MSLN full-length protein (NCBI: XP_028696439.1) expressed on HEK293T-monkey MSLN cells (monkey)
- T1 construct: Whole encoded precursor
- T1 chain: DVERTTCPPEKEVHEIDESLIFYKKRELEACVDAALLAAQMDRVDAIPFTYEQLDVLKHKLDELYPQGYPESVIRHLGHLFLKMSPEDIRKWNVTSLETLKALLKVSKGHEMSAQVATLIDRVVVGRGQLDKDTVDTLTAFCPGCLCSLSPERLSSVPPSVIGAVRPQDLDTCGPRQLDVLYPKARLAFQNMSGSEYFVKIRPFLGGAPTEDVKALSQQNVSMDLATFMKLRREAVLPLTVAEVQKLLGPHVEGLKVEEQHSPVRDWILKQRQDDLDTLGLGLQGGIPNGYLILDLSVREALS
- test-details: FACS on HEK293T-monkey MSLN cells;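 further: flow cytometry binding of chimeric antibodies to the cells, with a 2 h incubation on ice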
pEC50: −log10 of the molar value.

binder: S009-F7.18.10 (antibody, human IgG1, kappa, V domains shown, human-murine chimeric antibody, human IgG1/kappa constant regions) VH: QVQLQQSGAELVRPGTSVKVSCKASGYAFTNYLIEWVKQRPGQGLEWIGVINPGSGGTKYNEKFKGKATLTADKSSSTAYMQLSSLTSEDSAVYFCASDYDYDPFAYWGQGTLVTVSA VL: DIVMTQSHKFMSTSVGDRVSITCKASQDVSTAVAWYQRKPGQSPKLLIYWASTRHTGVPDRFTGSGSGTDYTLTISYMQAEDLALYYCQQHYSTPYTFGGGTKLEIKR
pEC50: 9.33
--
binder: S009-F7.44.20 (antibody, human IgG1, kappa, V domains shown, human-murine chimeric antibody, human IgG1/kappa constant regions) VH: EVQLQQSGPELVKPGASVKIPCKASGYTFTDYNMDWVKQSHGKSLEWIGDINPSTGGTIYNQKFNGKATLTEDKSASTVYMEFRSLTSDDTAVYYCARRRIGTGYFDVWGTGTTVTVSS VL: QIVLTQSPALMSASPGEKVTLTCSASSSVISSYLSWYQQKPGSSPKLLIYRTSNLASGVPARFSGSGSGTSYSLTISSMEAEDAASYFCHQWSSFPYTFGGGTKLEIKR
pEC50: 10.40
